Assign IC50 to each entry below.
target: TNF-α (Homo sapiens, UniProt P01375); assay: TNF-α Induced HEK Blue Cellular Assay; settings: HEK Blue TNFα reporter cells, TNF-α 100 pg/ml, 24 hrs at 37° C., secreted alkaline phosphatase (QUANTI-Blue, 620 nm)
Sequence (P01375 77-233 limits assumed): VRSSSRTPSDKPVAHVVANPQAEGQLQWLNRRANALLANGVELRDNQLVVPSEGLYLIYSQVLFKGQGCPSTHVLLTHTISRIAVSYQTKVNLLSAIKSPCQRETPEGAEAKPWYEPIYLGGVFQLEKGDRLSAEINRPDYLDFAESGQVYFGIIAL

Worked examples follow.
Cc1nc2cc(F)c(-c3ccc(P(C)(C)=O)nc3)nc2c(N[C@H](C)c2ccc(F)c(F)c2)c1Cl	≤ 1000 nM
Cc1cc(P(C)(C)=O)ncc1-c1nc2c(N[C@H](C)c3ccccc3F)c(Cl)c(C)nc2cc1F	≤ 1000 nM
CC[C@@H](Nc1c(Cl)c(C)nc2cc(F)c(-c3ccc(P(C)(C)=O)nc3)nc12)c1cccc(C#N)c1	≤ 100 nM

// next entry
Measured IC50, Cc1cn(-c2ccc(F)c([C@@H](C)Nc3c(Cl)c(C)nc4cc(F)c(-c5ccc(P(C)(C)=O)nc5)nc34)c2)cn1 : ≤ 1000 nM
